Listed here: items and their measured IC50.
target: Mcl-1 protein (Homo sapiens); assay: Inhibition of Mcl-1 by the fluorescence polarisation technique; assay type: binding; details: fluorescence polarisation test; Fluorescein labelled ligand 1 nM, Mcl-1 protein 5 nM, ~2 hours at r.t.; read-out: IC50 (M) Mcl-1 FP
Sequence (Q07820 whole entry): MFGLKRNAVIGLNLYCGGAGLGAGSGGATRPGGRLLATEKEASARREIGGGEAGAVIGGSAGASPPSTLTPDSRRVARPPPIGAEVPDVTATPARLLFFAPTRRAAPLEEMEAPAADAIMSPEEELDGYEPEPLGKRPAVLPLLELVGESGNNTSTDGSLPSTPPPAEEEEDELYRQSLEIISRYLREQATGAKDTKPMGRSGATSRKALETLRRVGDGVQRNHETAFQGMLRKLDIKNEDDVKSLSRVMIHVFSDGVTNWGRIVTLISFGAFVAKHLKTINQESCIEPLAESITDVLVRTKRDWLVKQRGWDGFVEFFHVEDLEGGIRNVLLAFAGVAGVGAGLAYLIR
Reply numerically in M, unit not repeated.

Some compounds with known IC50 results, for comparison:
Cc1c(-c2c(-c3ccc(F)cc3)sc3ncnc(OC(Cc4ccccc4OCc4ccnc(-c5ccccc5COCCO)n4)C(=O)O)c23)ccc(OCCN2CCN(C)CC2)c1Cl (centres unmarked)	1.09e-08
COCCN(CCOC)C(=O)OCc1cccc(-c2nccc(COc3ccccc3CC(Oc3ncnc4sc(-c5ccc(F)cc5)c(-c5ccc(OCCN6CCN(C)CC6)c(Cl)c5C)c34)C(=O)O)n2)c1 (centres unmarked)	3.2e-09
Cc1c(-c2c(-c3ccc(F)cc3)sc3ncnc(OC(Cc4ccccc4OCc4ccnc(-c5ccc(O)cc5)n4)C(=O)O)c23)ccc(OCCN2CCN(C)CC2)c1Cl (centres unmarked)	1.32e-08
Cc1c(-c2c(-c3ccc(F)cc3)sc3ncnc(OC(Cc4ccccc4OCc4ccnc(-c5cccc(OCCN(CCO)CCO)c5)n4)C(=O)O)c23)ccc(OCCN2CCN(C)CC2)c1Cl (centres unmarked)	4.65e-09

# ---- query compound ----
GET /value?item= COC1OC(COc2cccc(-c3nccc(COc4ccccc4CC(Oc4ncnc5sc(-c6ccc(F)cc6)c(-c6ccc(OCCN7CCN(C)CC7)c(Cl)c6C)c45)C(=O)O)n3)c2)C(OC)C(OC)C1OC (centres unmarked) &field=IC50 returns 4.8e-09

====

molecular target: UniProt:Q07820; assay: Inhibition of Mcl-1 by the fluorescence polarisation technique; type: binding; settings: fluorescence polarisation test; Fluorescein labelled ligand 1 nM, Mcl-1 protein 5 nM, ~2 hours at r.t.; read-out: IC50 (M) Mcl-1 FP
Measured Attribute: IC50 (M)
Reply numerically in M, unit not repeated.

Some compounds with known IC50 results, for comparison:
Cc1c(-c2c(-c3ccc(F)cc3)sc3ncnc(OC(Cc4ccccc4OCc4ccnc(-c5ccccc5OCC5COC(C)(C)O5)n4)C(=O)O)c23)ccc(OCCN2CCN(C)CC2)c1Cl (centres unmarked) [Example 5]	3.7e-09
Cc1c(-c2c(-c3ccc(F)cc3)sc3ncnc(OC(Cc4ccccc4OCc4ccnc(-c5cccc(COC(=O)NCCOCCOCCOCCO)c5)n4)C(=O)O)c23)ccc(OCCN2CCN(C)CC2)c1Cl (centres unmarked) [Example 36]	4.65e-09
Cc1c(-c2c(-c3ccc(F)cc3)sc3ncnc(OC(Cc4ccccc4OCc4ccnc(-c5cccc(OCCN(C)C)c5)n4)C(=O)O)c23)ccc(OCCN2CCN(C)CC2)c1Cl (centres unmarked) [Example 52]	3.7e-09
COCCOCc1ccccc1-c1nccc(COc2ccccc2CC(Oc2ncnc3sc(-c4ccc(F)cc4)c(-c4ccc(OCCN5CCN(C)CC5)c(Cl)c4C)c23)C(=O)O)n1 (centres unmarked) [Example 9]	8.15e-09
Cc1c(-c2c(-c3ccc(F)cc3)sc3ncnc(OC(Cc4ccccc4OCc4ccnc(-c5cccc(OCCO)c5)n4)C(=O)O)c23)ccc(OCCN2CCN(C)CC2)c1Cl (centres unmarked) [Example 30]	4.5e-09
Cc1c(-c2c(-c3ccc(F)cc3)sc3ncnc(OC(Cc4ccccc4OCc4ccnc(-c5ccc(OCC6COC(C)(C)O6)cc5)n4)C(=O)O)c23)ccc(OCCN2CCN(C)CC2)c1Cl (centres unmarked) [Example 55]	6.35e-09
Cc1c(-c2c(-c3ccc(F)cc3)sc3ncnc(OC(Cc4ccccc4OCc4ccnc(-c5cccc(CO)c5)n4)C(=O)O)c23)ccc(OCCN2CCN(C)CC2)c1Cl (centres unmarked) [Example 3]	4.05e-09
COCCOCCOc1ccccc1-c1nccc(COc2ccccc2CC(Oc2ncnc3sc(-c4ccc(F)cc4)c(-c4ccc(OCCN5CCN(C)CC5)c(Cl)c4C)c23)C(=O)O)n1 (centres unmarked) [Example 6]	1.57e-08

# lookup: Cc1c(-c2c(-c3ccc(F)cc3)sc3ncnc(OC(Cc4ccccc4OCc4ccnc(-c5ccccc5OCC(O)CO)n4)C(=O)O)c23)ccc(OCCN2CCN(C)CC2)c1Cl (centres unmarked) [Example 25] on UniProt:Q07820, IC50 = 3.45e-09

# lookup: COC1OC(COc2cccc(-c3nccc(COc4ccccc4CC(Oc4ncnc5sc(-c6ccc(F)cc6)c(-c6ccc(OCCN7CCN(C)CC7)c(Cl)c6C)c45)C(=O)O)n3)c2)C(O)C(O)C1O (centres unmarked) [Example 16] on UniProt:Q07820, IC50 = 7.2e-09

# lookup: Cc1c(-c2c(-c3ccc(F)cc3)sc3ncnc(OC(Cc4ccccc4OCc4ccnc(-c5cccc(COCCO)c5)n4)C(=O)O)c23)ccc(OCCN2CCN(C)CC2)c1Cl (centres unmarked) [Example 12] on UniProt:Q07820, IC50 = 4.25e-09

The values you see were collected from patent US10322131B2.
